Biological target: T1, Growth and differentiation factor-8 (GDF-8), mature human (human, UniProt O14793 267-375, conjugated to biotin in the ActRIIB ELISA and in the Fc gamma receptor SPR (site not stated))
T1 construct: also called myostatin; human GDF-8
Test: competition ELISA (GDF-8 / ActRIIB-Fc)
measurement name: IC50 by ELISA compared to OGD1.0.0

Examples from the recorded data:
binder	measurement name	test value
OGD1.0.5 humanized anti-GDF-8 antibody (VH0 and VL5) (antibody, V domains shown, VL5 is VL3 with W96L) VH: EVQLLESGGGLVQPGGSLRLSCAASGFTFSSYAMSWVRQAPGKGLEWVSTISSGGSYTSYPDSVKGRFTISRDNSKNTLYLQMNSLRAEDTAVYYCAKQDYAMNYWGQGTLVTVSS VL: DIQMTQSPSSLSASVGDRVTITCRASQSISTALNWYQQKPGKAPKLLIYSASSLQSGVPSRFSGSGSGTDFTLTISSLQPEDFATYYCQQSYSTPLTFGGGTKVEIK	IC50 by ELISA compared to OGD1.0.0	5.94 fold of OGD1.0.0
OGD1.0.3 humanized anti-GDF-8 antibody (VH0 and VL3) (antibody, V domains shown) VH: EVQLLESGGGLVQPGGSLRLSCAASGFTFSSYAMSWVRQAPGKGLEWVSTISSGGSYTSYPDSVKGRFTISRDNSKNTLYLQMNSLRAEDTAVYYCAKQDYAMNYWGQGTLVTVSS VL: DIQMTQSPSSLSASVGDRVTITCRASQSISTALNWYQQKPGKAPKLLIYSASSLQSGVPSRFSGSGSGTDFTLTISSLQPEDFATYYCQQSYSTPWTFGGGTKVEIK	IC50 by ELISA compared to OGD1.0.0	0.96 fold of OGD1.0.0
OGD1.4.0 humanized anti-GDF-8 antibody (VH4 and VL0) (antibody, V domains shown, VH4 carries M99F and N101D in CDR3) VH: EVQLLESGGGLVQPGGSLRLSCAASGFTFSSYAMSWVRQAPGKGLEWVSTISSGGSYTSYPDSVKGRFTISRDNSKNTLYLQMNSLRAEDTAVYYCAKQDYAFDYWGQGTLVTVSS VL: DIQMTQSPSSLSASVGDRVTITCKASQDVSTAVAWYQQKPGKAPKLLIYSASYRYTGVPSRFSGSGSGTDFTLTISSLQPEDFATYYCQQHYSTPWTFGGGTKVEIK	IC50 by ELISA compared to OGD1.0.0	1.71 fold of OGD1.0.0

We now examine a further binder.
Input: What value of IC50 by ELISA compared to OGD1.0.0 has been recorded for this entry: OGD1.0.2 humanized anti-GDF-8 antibody (VH0 and VL2) (antibody, V domains shown, Intact antibody produced in COS-1 cells) VH: EVQLLESGGGLVQPGGSLRLSCAASGFTFSSYAMSWVRQAPGKGLEWVSTISSGGSYTSYPDSVKGRFTISRDNSKNTLYLQMNSLRAEDTAVYYCAKQDYAMNYWGQGTLVTVSS VL: DIQMTQSPSSLSASVGDRVTITCKASQDVSTAVAWYQQKPGKAPKLLIYAASSLQSGVPSRFSGSGSGTDFTLTISSLQPEDFATYYCQQHYSTPWTFGGGTKVEIK
Output: 0.91 fold of OGD1.0.0

This collection of values is drawn from patent US20180057579A1.
